meta.source: paper PMC8360279

# ASSAY_PROTOCOL: Pharmacokinetics in rat plasma after oral administration of PA, PMRP or ATR (HPLC-MS and GC-MS)
# CONDITION_INFO: male, Sprague-Dawley, rat, plasma, po, 4.32 g/kg, Tmax, rat plasma; oral PA extract 4.32 g/kg once; mean ± S.D., n = 6
ENDPOINT_LABEL: Tmax (min)
State the answer as a number, implicitly in min.

Guide cases for Tmax, answers given:
[
  {
    "COMPOUND": "OCC1OC(Oc2c(O)cc(O)cc2C=Cc2ccc(O)cc2)C(O)C(O)C1O (stereo not shown) [THSG]",
    "OBSERVED_RESULT": 48.6
  },
  {
    "COMPOUND": "C/C=C/c1cc(OC)c(OC)cc1OC [α-asarone]",
    "OBSERVED_RESULT": 52.8
  },
  {
    "COMPOUND": "C/C=C/c1ccc(OC)c(OC)c1 [cis-methyl isoeugenol]",
    "OBSERVED_RESULT": 94.8
  }
]

Let's switch to this compound now.
Q. Look up and report measured Tmax for this entry: C/C=C\c1cc(OC)c(OC)cc1OC [β-asarone]
A. 21
